What GI50 was measured for each of the following?
Test system: UO-31 renal
protocol.notes: NCI tumour cell line growth inhibition, 48 h

Request - read-out GI50 | tested on UO-31 renal | compound C/C=C/[C@@H]1O[C@@H]2COC(=O)C2=C[C@@H]1O
4.21 µM

Request - read-out GI50 | tested on UO-31 renal | compound O=C(NC1CCCCC1)NS(=O)(=O)c1ccc(N2N=C3c4ccccc4CC3C2c2ccc(Cl)cc2)cc1 (stereo not given)
20 µM

Request - read-out GI50 | tested on UO-31 renal | compound NC(=S)N/N=C1\c2cc(Cl)ccc2-c2c1cc(Cl)cc2[N+](=O)[O-]
4.81 µM

Request - read-out GI50 | tested on UO-31 renal | compound CC[C@@H](c1ccc(O)c(O)c1)[C@@H](CC)c1ccc(O)c(O)c1
4.12 µM

Request - read-out GI50 | tested on UO-31 renal | compound COc1ccccc1NC(=O)c1cc2cc(Br)ccc2cc1O
1.57 µM

* * *

Tested on: EKVX NSCLC
protocol.notes: NCI tumour cell line growth inhibition, 48 h
*1 amine or outer side, *2 acyl side, *3 side chain or, on linkers, in order; H or OH if unused. Where a SMILES comes first, the peptide text is derived from it. Bridges are numbered along the chain shown (N, C = ends). Roman numbers before positions name the chains, in order. [ ]: non-standard residue; d: D form. Actinocin(9to1) = Cc1c2oc3c(C)ccc(C(=O)[*:1])c3nc-2c(C(=O)[*:2])c(N)c1=O; NMeV = CN[CH](C(=O)O)C(C)C; Sar = CNCC(=O)O
measured.property: TGI

What does the record list as TGI for C[C@@H]1CC[C@H]2C(C)(C)[C@H]3C[C@@]12CC[C@@]3(C)O ?
> 100 µM

What does the record list as TGI for O=C(O)C1C2c3ccccc3C(c3ccccc32)C1C(=O)NCC1CC1 (stereo unspecified) ?
> 100 µM

What does the record list as TGI for CCCCCCCCCCCCNC(=S)OC ?
36.6 µM

What does the record list as TGI for CCOC(=O)c1ccc(-c2cc(C)no2)[nH]1 ?
> 100 µM

What does the record list as TGI for CN1CCN(C(=O)COc2ccc(C34CC5CC(CC(C5)C3)C4)cc2)CC1 ?
> 100 µM

What does the record list as TGI for COC(=O)/C=C/c1cc(OC(C)=O)c2c(c1)[C@@H](C(=O)OC)[C@H](c1ccc(OC(C)=O)c(OC(C)=O)c1)O2 ?
> 94.3 µM

What does the record list as TGI for CCC(C)SC1SCC2C(=O)N(C)C3(CC3C)C(=O)OCC(NC(=O)c3nc4ccccc4cc3O)C(=O)NC(C)C(=O)N(C)C1C(=O)N(C)C1(CC1C)C(=O)OCC(NC(=O)c1nc3ccccc3cc1O)C(=O)NC(C)C(=O)N2C (stereo unspecified) ?
0.00538 µM

What does the record list as TGI for COc1cc(-c2nc3sccn3c2-c2ccnc(NCCNS(=O)(=O)c3ccc(F)cc3)n2)ccc1F ?
> 100 µM

What does the record list as TGI for Cc1c2oc3c(C)ccc(C(=O)NC4C(=O)NC(C(C)C)C(=O)N5CCCC5C(=O)N(C)CC(=O)N(C)C(C(C)C)C(=O)OC4C)c3nc-2c(C(=O)NC2C(=O)NC(C(C)C)C(=O)N3CCCC3C(=O)N(C)CC(=O)N(C)C(C(C)C)C(=O)OC2C)c(N)c1=O (stereo unspecified) (I: TVP[Sar][NMeV] / II: TVP[Sar][NMeV]; ester I:1-I:C, II:1-II:C; linker I:N-II:N via Actinocin(9to1); configuration not given here) ?
> 0.779 µM

What does the record list as TGI for Cc1cc2c(cc1C)[n+](=O)c(C(=O)c1ccccc1)c(C(F)F)n2[O-] ?
44.6 µM

What does the record list as TGI for C/C=C/[C@@H]1O[C@@H]2COC(=O)C2=C[C@@H]1O ?
36.7 µM

What does the record list as TGI for COc1cc(S(=O)(=O)Nc2ccc(-c3csc(N4C(=O)CSC4c4cccc(Oc5ccccc5)c4)n3)cc2)ccc1Cl (stereo unspecified) ?
> 100 µM

What does the record list as TGI for COc1ccc2oc3c(C)cc4c(OC)nnc(OC)c4c3c2c1 ?
> 100 µM

What does the record list as TGI for CC1=NN(c2nc(N)nc(COc3ccc(N)cc3)n2)C(C)(C)C1 ?
> 100 µM

What does the record list as TGI for S=P1(Oc2ccccc2)NNP2(=NP(N3CC3)(N3CC3)=NP(N3CC3)(N3CC3)=N2)NN1 (stereo unspecified) ?
> 100 µM

What does the record list as TGI for O=C1CSC(=S)N1/N=C/c1ccc(Cl)c([N+](=O)[O-])c1 ?
76.9 µM

Values compiled from PubChem BioAssay (NCI).
